- target entity: T1, GST-NPP-14 (C. elegans, UniProt Q17602 1-1390)
- T1 sequence (looked up): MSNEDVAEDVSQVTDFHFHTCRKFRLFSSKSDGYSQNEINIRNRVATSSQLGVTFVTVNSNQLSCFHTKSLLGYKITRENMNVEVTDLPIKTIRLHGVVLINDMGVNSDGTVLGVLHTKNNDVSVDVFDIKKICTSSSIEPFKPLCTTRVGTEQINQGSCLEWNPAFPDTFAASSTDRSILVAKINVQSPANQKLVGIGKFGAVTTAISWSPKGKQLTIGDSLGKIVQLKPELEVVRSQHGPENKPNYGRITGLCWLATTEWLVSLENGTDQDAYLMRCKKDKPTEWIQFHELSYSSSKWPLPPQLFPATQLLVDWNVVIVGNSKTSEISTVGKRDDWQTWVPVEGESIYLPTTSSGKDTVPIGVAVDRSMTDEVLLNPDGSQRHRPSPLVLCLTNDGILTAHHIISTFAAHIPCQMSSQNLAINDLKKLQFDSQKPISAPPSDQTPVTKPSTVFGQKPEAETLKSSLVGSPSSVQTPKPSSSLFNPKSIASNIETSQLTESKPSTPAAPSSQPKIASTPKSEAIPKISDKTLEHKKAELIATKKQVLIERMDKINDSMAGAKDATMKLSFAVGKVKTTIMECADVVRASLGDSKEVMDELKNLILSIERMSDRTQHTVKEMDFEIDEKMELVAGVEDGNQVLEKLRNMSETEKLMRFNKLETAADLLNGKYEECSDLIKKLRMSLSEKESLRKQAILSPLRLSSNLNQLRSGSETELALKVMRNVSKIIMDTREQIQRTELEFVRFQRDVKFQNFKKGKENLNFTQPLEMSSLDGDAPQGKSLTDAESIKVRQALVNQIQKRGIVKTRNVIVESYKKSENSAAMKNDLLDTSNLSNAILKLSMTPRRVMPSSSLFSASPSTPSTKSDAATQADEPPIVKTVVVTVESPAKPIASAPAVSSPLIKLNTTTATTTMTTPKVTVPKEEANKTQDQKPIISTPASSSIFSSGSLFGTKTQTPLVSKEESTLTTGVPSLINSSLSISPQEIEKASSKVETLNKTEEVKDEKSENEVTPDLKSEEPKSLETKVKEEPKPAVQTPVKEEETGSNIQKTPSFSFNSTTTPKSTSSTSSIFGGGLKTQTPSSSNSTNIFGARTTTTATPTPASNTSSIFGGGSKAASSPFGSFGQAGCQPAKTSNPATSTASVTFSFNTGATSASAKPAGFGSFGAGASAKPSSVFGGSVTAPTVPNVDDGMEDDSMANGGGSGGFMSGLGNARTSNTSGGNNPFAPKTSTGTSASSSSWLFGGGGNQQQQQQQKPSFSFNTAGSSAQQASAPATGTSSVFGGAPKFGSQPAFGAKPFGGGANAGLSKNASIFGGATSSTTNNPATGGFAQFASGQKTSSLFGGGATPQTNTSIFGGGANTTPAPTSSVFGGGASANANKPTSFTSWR
- assay details: pull-down
endpoint label: binding result

binder	endpoint label	experimental result
CED-3(1-220)-His6 L30F (domain or fragment, C. elegans, UniProt P42573 1-220, looked up) MMRQDRRSLLERNIMMFSSHLKVDEILEVFIAKQVLNSDNGDMINSCGTVREKRREIVKAVQRRGDVAFDAFYDALRSTGHEGLAEVLEPLARSVDSNAVEFECPMSPASHRRSRALSPAGYTSPTRVHRDSVSSVSSFTSYQDIYSRARSRSRSRALHSSDRHNYSSPPVNAFPSQPSSANSSFTGCSSLGYSSSRNRSFSKASGPTQYIFHEEDMNFV	binding result	binds
